assay: MTS tetrazolium reduction cell viability assay; conditions: rat, rat mesangial cells (1097/IRMC cells), TGF-β1 stimulated, CC50 (μM), vs 1% DMSO vehicle
In this section, each of the compounds is paired with its reported CC50 at 48 h.
quantity.name: CC50 at 48 h

- C#CCOc1ccc(/C=C/C(=O)Nc2ccccc2-c2nnco2)cc1OC [Example 21]: > 300 µM
- C#CCOc1ccc(/C=C/C(=O)Nc2ccc(C#N)cc2)cc1CC [Example 124]: > 300 µM
- COc1cc(/C=C/C(=O)Nc2ccccc2C(=O)O)ccc1OCCc1cccnc1 [Example 57]: > 76.6 µM
- CN1C(=O)COc2ccc(/C=C/C(=O)Nc3ccccc3C(=O)O)cc21 [Example 112]: > 300 µM
- C#CCOc1ccc(C2CC2C(=O)Nc2ccc(F)cc2)cc1OC (centres unmarked) [Example 133]: > 300 µM
